Entries and their ΔTm values follow.
Tested on: pApU (poly rA–poly rU; polyAU) (RNA, polymer) A/U
Test: UV thermal denaturation
Details: Na+ (sodium cacodylate); pH 7; r[compound]/[polynucleotide] = 0.3; error ±0.5 °C; per base
Numbers only here, please. The scale is °C.

Example entries begin here.
COMPOUND_STRING	MEASURE	EXPERIMENTAL_VALUE
Cc1cc(C)c(B(c2c(C)cc(-c3ccc(-c4ccc(-c5cc(C)c(B(c6c(C)cc([N+](C)(C)C)cc6C)c6c(C)cc([N+](C)(C)C)cc6C)c(C)c5)s4)s3)cc2C)c2c(C)cc([N+](C)(C)C)cc2C)c(C)c1	ΔTm	5.5
Cc1cc(C)c(B(c2c(C)cc(C)cc2C)c2c(C)cc(-c3ccc(-c4ccc(-c5cc(C)c(B(c6c(C)cc([N+](C)(C)C)cc6C)c6c(C)cc([N+](C)(C)C)cc6C)c(C)c5)s4)s3)cc2C)c(C)c1	ΔTm	11.1
Cc1cc(C)c(B(c2c(C)cc(-c3ccc(-c4ccc(-c5cc(C)c(B(c6c(C)cc(C)cc6C)c6c(C)cc([N+](C)(C)C)cc6C)c(C)c5)s4)s3)cc2C)c2c(C)cc([N+](C)(C)C)cc2C)c(C)c1	ΔTm	13.0

Now examine the next entry.
INPUT: // query ΔTm value for entry `Cc1cc(C)c(B(c2c(C)cc(C)cc2C)c2c(C)cc(-c3ccc(-c4ccc(-c5cc(C)c(B(c6c(C)cc(C)cc6C)c6c(C)cc([N+](C)(C)C)cc6C)c(C)c5)s4)s3)cc2C)c(C)c1`
OUTPUT: 0
